Below is a list of entries, each paired with its recorded IL-g Response Frequency value.
# Tested on: peripheral blood mononuclear cells (PBMC), T cells
# assay.info: ELISpot assay, IL-5 release (SFC) after stimulation with a-synuclein epitope pools
# Type: cell-based, human
# applied.conditions: Patients Summary; PD patients; single peptide
endpoint: IL-g Response Frequency

>  <substance>
3521.0001 (PVDPDNEAY; listed as Homo sapiens)

>  <tested.system>
peripheral blood mononuclear cells (PBMC), T cells

>  <result>
0%

$$$$
>  <substance>
3521.0011 (QVTNVGGAV; listed as Homo sapiens)

>  <tested.system>
peripheral blood mononuclear cells (PBMC), T cells

>  <result>
0%

$$$$
>  <substance>
3521.0044 (GVTAVAQKTV; listed as Homo sapiens)

>  <tested.system>
peripheral blood mononuclear cells (PBMC), T cells

>  <result>
0%

$$$$
>  <substance>
3521.0033 (VLYVGSKTKK; listed as Homo sapiens)

>  <tested.system>
peripheral blood mononuclear cells (PBMC), T cells

>  <result>
50%

$$$$
>  <substance>
3521.0016 (DVFMKGLSK; listed as Homo sapiens)

>  <tested.system>
peripheral blood mononuclear cells (PBMC), T cells

>  <result>
0%

$$$$

* * *

# Test system: peripheral blood mononuclear cells (PBMC), T cells
# assay.info: ELISpot assay, IL-5 release (SFC) after stimulation with a-synuclein epitope pools
# Format: cell-based, human
# applied.conditions: Patients Summary; PD patients; single peptide

>  <substance>
3521.007 (GVVAAAEKTK; listed as Homo sapiens)

>  <IL-g Response Frequency, %>
33

$$$$
>  <substance>
3521.0017 (FMKGLSKAK; listed as Homo sapiens)

>  <IL-g Response Frequency, %>
0

$$$$
>  <substance>
3521.0075 (KQGVAEAPGKTKEGV; listed as Homo sapiens)

>  <IL-g Response Frequency, %>
13

$$$$
>  <substance>
3521.0043 (VFMKGLSKAK; listed as Homo sapiens)

>  <IL-g Response Frequency, %>
33

$$$$
>  <substance>
3521.0055 (QEGILEDMPV; listed as Homo sapiens)

>  <IL-g Response Frequency, %>
0

$$$$
>  <substance>
3521.002 (AGKTKEGVL; listed as Homo sapiens)

>  <IL-g Response Frequency, %>
13

$$$$
>  <substance>
3521.0047 (IAAATGFVKK; listed as Homo sapiens)

>  <IL-g Response Frequency, %>
0

$$$$
>  <substance>
3521.0014 (KTVEGAGSI; listed as Homo sapiens)

>  <IL-g Response Frequency, %>
0

$$$$
>  <substance>
3521.0034 (GVLYVGSKTK; listed as Homo sapiens)

>  <IL-g Response Frequency, %>
33

$$$$
>  <substance>
3521.0064 (GVVHGVATV; listed as Homo sapiens)

>  <IL-g Response Frequency, %>
0

$$$$
>  <substance>
3521.0066 (KAKEGVVAA; listed as Homo sapiens)

>  <IL-g Response Frequency, %>
0

$$$$
>  <substance>
3521.0026 (MPSEEGYQD; listed as Homo sapiens)

>  <IL-g Response Frequency, %>
0

$$$$
>  <substance>
3521.003 (GSIAAATGFV; listed as Homo sapiens)

>  <IL-g Response Frequency, %>
25

$$$$
>  <substance>
3521.0003 (SIAAATGFV; listed as Homo sapiens)

>  <IL-g Response Frequency, %>
0

$$$$
>  <substance>
3521.0057 (NEEGAPQEGI; listed as Homo sapiens)

>  <IL-g Response Frequency, %>
0

$$$$
>  <substance>
3521.001 (VFMKGLSKA; listed as Homo sapiens)

>  <IL-g Response Frequency, %>
33

$$$$
>  <substance>
3521.0002 (PSEEGYQDY; listed as Homo sapiens)

>  <IL-g Response Frequency, %>
0

$$$$
>  <substance>
3521.0041 (EGILEDMPVD; listed as Homo sapiens)

>  <IL-g Response Frequency, %>
0

$$$$
>  <substance>
3521.0042 (AGKTKEGVLY; listed as Homo sapiens)

>  <IL-g Response Frequency, %>
0

$$$$
>  <substance>
3521.0019 (APGKTKEGV; listed as Homo sapiens)

>  <IL-g Response Frequency, %>
0

$$$$
>  <substance>
3521.0024 (DPDNEAYEM; listed as Homo sapiens)

>  <IL-g Response Frequency, %>
0

$$$$
>  <substance>
3521.0067 (KTKEGVVHG; listed as Homo sapiens)

>  <IL-g Response Frequency, %>
0

$$$$
